Cited source: patent US20190330346A1

# target: T1, human PD-1 (human, UniProt Q15116 25-167)
# T1 construct: The immunogen was PD1/Fc (Leu25-Gln167 fused to human IgG1 Pro100-Lys330); also called huPD-1; hPD-1
# T1 sequence (Q15116 25-167 limits assumed): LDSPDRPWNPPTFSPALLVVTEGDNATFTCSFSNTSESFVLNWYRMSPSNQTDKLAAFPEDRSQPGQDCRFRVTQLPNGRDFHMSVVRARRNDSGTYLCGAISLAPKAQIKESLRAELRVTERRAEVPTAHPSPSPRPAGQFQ
# measurement.protocol: SPR, multiple-cycle, crude Fab from E. coli; antigen form not stated
# Excerpt: A homology model of mouse anti-PD1 Fv was built wherein putative back mutation sites (i.e., buried residues of the frameworks that are different in the mouse and human acceptor sequences) were identified. There were a total of 14 putative back mutation sites. […]
# Kd values compiled below
result.type: Kd (nM)

[[record]]
binder = "chimeric Fab (Fab, V domains shown, Crude murine-human chimeric Fab from E. coli TG1, made with the HCVR and LCVR of PD1#3; Only the variable domains are tied to it) VH: EVQLVESGGDLVKPGGSLKLSCAASGFVFSRYDMAWVRQTPEKRLEWVAFISGGGSNTYYPDTVKGRFTISRDNAKNTLYLQMTSLKSEDTAVYYCISPYYYAMEYWGQGTSVTVSS VL: DIVMTQSHKFISTSVGDRVSITCKASQDVDTAVAWYQQKPGQSPKLLIHWASTRHTGVPDRFTGGGSGTDFTLTLSNVQSEDLADYFCQQYSTFPWTFGGGTRLEIK"
result_type = "Kd"
test_value = 0.5

[[record]]
binder = "Fab 13 (Fab, V domains shown, Crude Fab from E. coli; also called PD1-BM VL-F87Y) VH: EVQLVESGGGLVQPGGSLRLSCAASGFVFSRYDMAWVRQTPGKGLEWVAFISGGGSNTYYPDTVKGRFTISRDNSKNTLYLQMNSLRAEDTAVYYCISPYYYAMEYWGQGTTVTVSS VL: DIQMTQSPSSISTSVGDRVTITCKASQDVDTAVAWYQQKPGKSPKLLIHWASTRHTGVPSRFSGSGSGTDFTLTLSSVQPEDLADYYCQQYSTFPWTFGGGTKLEIK"
result_type = "Kd"
test_value = 0.29

